Molecular target: ETS1 (UniProt P14921)
Sequence: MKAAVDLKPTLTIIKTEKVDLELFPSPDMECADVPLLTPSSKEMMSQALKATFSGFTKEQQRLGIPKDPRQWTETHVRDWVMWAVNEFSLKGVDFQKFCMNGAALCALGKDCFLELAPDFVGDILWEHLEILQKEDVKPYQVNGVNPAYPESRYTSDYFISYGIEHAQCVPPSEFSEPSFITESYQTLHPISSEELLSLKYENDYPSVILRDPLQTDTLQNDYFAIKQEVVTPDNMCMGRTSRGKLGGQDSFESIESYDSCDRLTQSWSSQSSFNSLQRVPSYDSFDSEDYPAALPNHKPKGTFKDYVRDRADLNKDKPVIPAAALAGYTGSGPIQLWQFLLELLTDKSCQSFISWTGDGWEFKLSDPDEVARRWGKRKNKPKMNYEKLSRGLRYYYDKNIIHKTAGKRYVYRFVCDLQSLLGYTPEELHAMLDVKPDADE
Experiment: ETS1 binding intensity (PBM fluorescence), ETS1 alone (arbitrary fluorescence units); higher = stronger binding
Conditions: ETS1 concentration 1 nM; RUNX1 concentration 0 nM
Endpoint Label: ETS1 binding intensity

A selection of reference data follows.
CCGAGCCGGCCTCTTCCGCCGCAAGTCCCTCCCCAA | 548
AACCATTACAGGATGTGAGATTCAAACCACTAACAG | 2270
TCTCTACTTCCCATTATTTCTGTGGTTAATTTCACC | 369
TCTGGGCTGACTTCCTGGCTTCGTCCCACAACTTCA | 668
GGGAGGTCACATCCTGCCCGCGGTCTCAGAAAAGCT | 821

Q. Reported ETS1 binding intensity for ETS1 (UniProt P14921), given `TGTTTTTGTTTCCGTTTACAAACCACAACAAAGGTG` ?
A. 736

Q. Reported ETS1 binding intensity for ETS1 (UniProt P14921), given `CCATCTTCATACAGGATGCTGTGGTATGTAAAACAA` ?
A. 2110

Q. Reported ETS1 binding intensity for ETS1 (UniProt P14921), given `GGCAGGAAAGAGCTGATGCATTTCAACCGCAGCCTG` ?
A. 520

Q. Reported ETS1 binding intensity for ETS1 (UniProt P14921), given `TTAGCACATCCTGGGTACACAGACCACAGCCTCCTC` ?
A. 367

Q. Reported ETS1 binding intensity for ETS1 (UniProt P14921), given `TCTGGGGGAGGGGAAGGATGTGGTTTGCAGAGCGGA` ?
A. 873

Q. Reported ETS1 binding intensity for ETS1 (UniProt P14921), given `AATGAAGGAGGGGCAGGATGTGGTCTTGGTGAATCA` ?
A. 2520

Q. Reported ETS1 binding intensity for ETS1 (UniProt P14921), given `GCGCAAGGATCCGGTTTGTTGTGGTGTGGGGAGGGG` ?
A. 517
